- Tested on: Plasmodium falciparum
- assay: Antimalarial potency against Plasmodium falciparum at 0.05 ng/mL.
- Format: functional
assayMetric: Activity (%)
Report the value in % with no unit label.

See these solved cases before continuing.
CC(=O)OC[C@H]1O[C@@H](O[C@@H]2[C@@H](O)[C@@H](O)[C@H](Oc3c(-c4ccc(O)c(O)c4)oc4cc(O)cc(O)c4c3=O)O[C@H]2C)[C@H](O)[C@H](O)[C@H]1O | 27.4
C[C@@H]1O[C@@H](OC[C@H]2O[C@@H](Oc3c(-c4ccc(O)cc4)oc4cc(O)cc(O)c4c3=O)[C@H](O[C@H]3OC[C@H](O)[C@@H](O)[C@@H]3O)[C@@H](O)[C@H]2O)[C@H](O)[C@H](O)[C@H]1O | 37.6

# next molecule below
INPUT: Record lookup: for Plasmodium falciparum, what Activity belongs to C[C@@H]1O[C@@H](Oc2c(-c3ccc(O)c(O)c3)oc3cc(O)cc(O)c3c2=O)[C@H](O)[C@H](O)[C@H]1O ?
OUTPUT: 34
